Target: DGAT-1 enzyme (Homo sapiens)
Sequence (O75907 whole entry, species assumed): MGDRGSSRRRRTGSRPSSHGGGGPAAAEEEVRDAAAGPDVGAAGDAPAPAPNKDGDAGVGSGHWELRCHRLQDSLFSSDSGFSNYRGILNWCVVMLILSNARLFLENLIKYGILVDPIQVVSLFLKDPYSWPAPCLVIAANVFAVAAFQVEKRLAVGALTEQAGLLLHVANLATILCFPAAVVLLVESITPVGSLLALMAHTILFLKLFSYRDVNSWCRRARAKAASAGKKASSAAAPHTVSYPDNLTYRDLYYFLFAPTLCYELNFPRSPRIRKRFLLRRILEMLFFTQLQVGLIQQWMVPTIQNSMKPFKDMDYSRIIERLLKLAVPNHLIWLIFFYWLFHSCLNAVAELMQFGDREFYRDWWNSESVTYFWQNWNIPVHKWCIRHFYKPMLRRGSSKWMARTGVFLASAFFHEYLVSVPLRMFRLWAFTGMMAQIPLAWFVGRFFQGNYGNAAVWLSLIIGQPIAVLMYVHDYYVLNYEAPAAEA
Experiment: DGAT-1 enzyme inhibition, phase partitioning assay (PPA), 96-well
Settings: recombinant DGAT-1 produced in Sf9 insect cells; 1,2-di(cis-9-octadecenoyl)-sn-glycerol and octanoylCoA; read-out: IC50, concentration that inhibits 50% of the activity of DGAT-1
assay-metric: IC50 (µM)

Sample answers from the record:
compound	units-text	IC50
O=C(Nc1nc(C2(c3ccccc3)CC2)no1)c1ccc(O[C@H]2CC[C@@H](C(=O)O)CC2)cc1 [Compound 6]	µM	3.76
O=C(Nc1nc(Cc2ccccc2)no1)c1ccc(C2CCC(C3CC3C(=O)O)CC2)cc1 (stereo not shown) [Compound 3b]	µM	0.742
O=C(Nc1nc(Cc2ccccc2)no1)c1ccc(O[C@H]2CC[C@@H](C(=O)O)CC2)nc1 [Compound 10]	µM	0.081
O=C(O)CC[C@H]1CC[C@H](c2ccc(C(=O)Nc3nc(Cc4ccccc4)no3)cc2)CC1 [Compound 3d]	µM	0.927
O=C(Nc1nc(COc2ccccc2)no1)c1ccc(O[C@H]2CC[C@@H](C(=O)O)CC2)cc1 [Compound 8]	µM	0.094

(I) CC(C)(c1ccccc1)c1noc(NC(=O)c2ccc(O[C@H]3CC[C@@H](C(=O)O)CC3)cc2)n1 [Compound 7]
(II) O=C(O)/C=C/[C@H]1CC[C@H](c2ccc(C(=O)Nc3nc(Cc4ccccc4)no3)cc2)CC1 [Compound 3c]
Input line: Please indicate which entry, I or II , has the lower recorded IC50 value. // output: label of the selected item
Output line: II

Data origin: patent US20130137691A1
